# target entity: sodium ion channel of Trpm5 bitter receptor (Mus musculus, UniProt Q9JJH7)
# Construct: Put the removed tongue in a 2 ml EP tube, add 1-1.5 ml of 0.25% trypsin solution; from tissue; host or cells: cells dissociated with trypsin from mouse tongue
# Sequence (Q9JJH7 1-1158): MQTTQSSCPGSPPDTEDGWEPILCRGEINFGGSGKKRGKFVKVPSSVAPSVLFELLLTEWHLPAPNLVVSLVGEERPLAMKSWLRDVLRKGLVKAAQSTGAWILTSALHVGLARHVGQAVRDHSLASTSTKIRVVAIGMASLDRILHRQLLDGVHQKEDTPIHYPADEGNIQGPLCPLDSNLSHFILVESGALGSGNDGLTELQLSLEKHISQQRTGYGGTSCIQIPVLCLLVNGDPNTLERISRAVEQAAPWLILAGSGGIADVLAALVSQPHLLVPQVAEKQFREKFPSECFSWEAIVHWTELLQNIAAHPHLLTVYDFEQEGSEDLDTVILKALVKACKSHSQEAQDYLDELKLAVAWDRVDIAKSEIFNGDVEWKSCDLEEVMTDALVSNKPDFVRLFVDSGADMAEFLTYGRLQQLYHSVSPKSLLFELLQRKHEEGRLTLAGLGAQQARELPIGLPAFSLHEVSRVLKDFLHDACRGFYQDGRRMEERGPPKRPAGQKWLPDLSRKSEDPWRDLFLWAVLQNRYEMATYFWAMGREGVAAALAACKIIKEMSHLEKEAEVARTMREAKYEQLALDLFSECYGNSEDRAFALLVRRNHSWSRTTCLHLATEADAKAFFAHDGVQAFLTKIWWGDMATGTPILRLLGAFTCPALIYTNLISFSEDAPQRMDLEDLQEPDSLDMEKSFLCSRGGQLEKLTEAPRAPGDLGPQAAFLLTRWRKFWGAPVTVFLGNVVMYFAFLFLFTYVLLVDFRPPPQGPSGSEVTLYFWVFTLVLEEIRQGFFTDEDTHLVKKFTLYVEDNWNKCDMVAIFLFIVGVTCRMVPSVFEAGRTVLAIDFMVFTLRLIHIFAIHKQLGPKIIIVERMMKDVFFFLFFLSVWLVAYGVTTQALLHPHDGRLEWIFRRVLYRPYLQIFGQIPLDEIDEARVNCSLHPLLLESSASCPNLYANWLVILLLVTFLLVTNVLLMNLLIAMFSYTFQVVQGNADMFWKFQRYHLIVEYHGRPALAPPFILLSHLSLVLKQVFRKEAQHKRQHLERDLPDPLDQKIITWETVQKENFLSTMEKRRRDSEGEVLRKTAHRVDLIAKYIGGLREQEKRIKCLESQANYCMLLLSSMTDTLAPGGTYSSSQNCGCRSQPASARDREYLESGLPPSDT
# protocol text: Immunofluorescence experiment of sodium ion channels in mouse tongue cells stimulated with bitter agent
# Type: cell-based, mice
# condition context: Bitterant 180 s (2% metronidazole solution)
measured attribute: average value of fluorescence brightness

Examples with answers:
compound	average value of fluorescence brightness
CC1CCC(C(C)C)C(O)C1 (stereo not shown) [Menthol, 2-isopropyl-5-methylcyclohexanol]	21.907
C=CCc1ccc(OC(C)=O)c(OC)c1 [Eugenol acetate]	26.329

(A) NCCCC(=O)O [GABA, 4-aminobutyric acid]
(B) O=P(c1ccccc1)(c1ccccc1)c1ccccc1 [Triphenylphosphine oxide, reference compound]
Problem: Rank A against B by their average value of fluorescence brightness values and give the higher one. Bench note: the answer is the label of the chosen record.
Result: B

---

# protocol text: Oral spray bitterness masking taste test by volunteers with Coptis chinensis standard bitter solution
# Assay type: in vivo, healthy volunteers
# condition context: 0.2% solution in 60% ethanol as oral spray; relative to original bitterness 4.0
Overview of reported Reduction range across a group of molecules:
Numbers only here, please. The scale is %.

Examples with answers:
molecule	Reduction range (%)
CC1CC(O)CC(C)(C)C1 (stereo not shown)	0.00
CCCCCC1=C(C)CCC1=O [Dihydrojasmone]	0.00
O=S(=O)([O-])[O-].[Mg+2] [Magnesium sulfate]	37.50
CCNC(=O)[C@@H]1C[C@H](C)CC[C@H]1C(C)C [Menthamide, N-ethyl-L-menthyl carboxamide]	62.50
COc1cc(C=O)cc(O)c1O [Hydroxyvanillin]	0.00

Problem: For the molecule shown here, CC(C)[C@@H]1CC[C@@H](C)C[C@H]1OC(=O)CCC(=O)O [Menthyl succinate] , give the reported Reduction range.
Result: 40.00

Problem: For the molecule shown here, `CCOC(=O)CNC(=O)[C@@H]1C[C@H](C)CC[C@H]1C(C)C` , give the reported Reduction range.
Result: 57.50

---

# target entity: sodium ion channel of Trpm5 bitter receptor (Mus musculus, UniProt Q9JJH7)
# Construct: Put the removed tongue in a 2 ml EP tube, add 1-1.5 ml of 0.25% trypsin solution; from tissue; host or cells: cells dissociated with trypsin from mouse tongue
# protocol text: Immunofluorescence experiment of sodium ion channels in mouse tongue cells stimulated with bitter agent
# Type: cell-based, mice
# condition context: Initial
measured attribute: average value of fluorescence brightness, base number removed

molecule	target entity	assay value
CC1CCC(C(C)C)C(O)C1 (stereo not drawn)	sodium ion channel of Trpm5 bitter receptor (Mus musculus, UniProt Q9JJH7)	0
C=CCc1ccc(OC(C)=O)c(OC)c1 [Eugenol acetate]	sodium ion channel of Trpm5 bitter receptor (Mus musculus, UniProt Q9JJH7)	0
CCCCC[C@H](O)CC(=O)CCc1ccc(O)c(OC)c1	sodium ion channel of Trpm5 bitter receptor (Mus musculus, UniProt Q9JJH7)	0
CC(C)[C@@H]1CC[C@@H](C)C[C@H]1OC(=O)CCC(=O)O [Menthyl succinate]	sodium ion channel of Trpm5 bitter receptor (Mus musculus, UniProt Q9JJH7)	0
C=CC(C)(O)CCC=C(C)C (stereo not drawn)	sodium ion channel of Trpm5 bitter receptor (Mus musculus, UniProt Q9JJH7)	0
CC1CCC(C(C)C)C(=O)C1 (stereo not drawn)	sodium ion channel of Trpm5 bitter receptor (Mus musculus, UniProt Q9JJH7)	0
O=P(c1ccccc1)(c1ccccc1)c1ccccc1 [Triphenylphosphine oxide, reference compound]	sodium ion channel of Trpm5 bitter receptor (Mus musculus, UniProt Q9JJH7)	0
COc1ccc(CCN(C)CCCC(C#N)(c2ccc(OC)c(OC)c2)C(C)C)cc1OC (stereo not drawn) [Verapamil, reference compound]	sodium ion channel of Trpm5 bitter receptor (Mus musculus, UniProt Q9JJH7)	0
CC(C)=CCCC(C)=CC=O	sodium ion channel of Trpm5 bitter receptor (Mus musculus, UniProt Q9JJH7)	0

---

# target entity: sodium ion channel of Trpm5 bitter receptor (Mus musculus, UniProt Q9JJH7)
# Construct: Put the removed tongue in a 2 ml EP tube, add 1-1.5 ml of 0.25% trypsin solution; from tissue; host or cells: cells dissociated with trypsin from mouse tongue
# protocol text: Immunofluorescence experiment of sodium ion channels in mouse tongue cells stimulated with bitter agent
# Assay type: cell-based, mice
# condition context: Initial (before addition of drug); sodium ion dye ENG-2 AM
measured attribute: average value of fluorescence brightness

compound	target entity	average value of fluorescence brightness
COc1ccc(CCN(C)CCCC(C#N)(c2ccc(OC)c(OC)c2)C(C)C)cc1OC (stereo not drawn) [Verapamil, reference compound]	sodium ion channel of Trpm5 bitter receptor (Mus musculus, UniProt Q9JJH7)	27.855

(I) CC(C)[C@@H]1CC[C@@H](C)C[C@H]1OC(=O)CCC(=O)O [Menthyl succinate]
(II) O=P(c1ccccc1)(c1ccccc1)c1ccccc1 [Triphenylphosphine oxide, reference compound]
Problem: Rank I against II by their average value of fluorescence brightness values and give the higher one. Bench note: the answer is the label of the chosen record.
Result: II

---

# target entity: sodium ion channel of Trpm5 bitter receptor (Mus musculus)
# Construct: Put the removed tongue in a 2 ml EP tube, add 1-1.5 ml of 0.25% trypsin solution; from tissue; host or cells: cells dissociated with trypsin from mouse tongue
# protocol text: Immunofluorescence experiment of sodium ion channels in mouse tongue cells stimulated with bitter agent
# Type: cell-based, mice
# condition context: Initial (before addition of drug); sodium ion dye ENG-2 AM
measured attribute: average value of fluorescence brightness

compound	average value of fluorescence brightness
CC1CCC(C(C)C)C(OC(=O)C(C)O)C1 (centres unmarked) [Menthyl lactate]	28.538
CC(C)=CCCC(C)=CC=O [Citral, citral]	30.278
CC1CCC(C(C)C)C(=O)C1 (centres unmarked) [Menthone, 5-methyl-2-isopropylcyclohexanone]	25.556
C=CCc1ccc(OC(C)=O)c(OC)c1 [Eugenol acetate]	28.228
NCCCC(=O)O [GABA, 4-aminobutyric acid]	27.285

---

# protocol text: Oral spray bitterness masking taste test by volunteers with Coptis chinensis standard bitter solution
# Format: in vivo, healthy volunteers
# Set-up: key: bitterness value 0.5–5.5; 1 = none, 5 = unbearable
# condition context: concentration 0.005% in 60% ethanol; initial bitterness 4.0; 16 cases
measured attribute: bitterness value after drug
Kindly provide the number alone.

Examples with answers:
compound	measured attribute	assay value
CNC(=O)C(C)(C(C)C)C(C)C [Cooling agent WS-23, N,2,3-trimethyl-2-isopropylbutyramide]	bitterness value after drug	2.4
CC1(C)C2CCC1(C)C(O)C2 (stereo not shown)	bitterness value after drug	3.4

Problem: For the compound shown here, O=S(=O)([O-])[O-].[Mg+2] [Magnesium sulfate] , give the reported bitterness value after drug.
Result: 3.2

Problem: For the compound shown here, C=CC(C)(O)CCC=C(C)C (stereo not shown) , give the reported bitterness value after drug.
Result: 2.5

Problem: For the compound shown here, `O=C(/C=C/C=C/c1ccc2c(c1)OCO2)N1CCCCC1` , give the reported bitterness value after drug.
Result: 2.5
